# Test system: B16-F10
# procedure-summary: Cytotoxicity against mouse B16-F10 cells assessed as reduction in cell viability at 40 ug/ml for 24 hrs by MTT assay
# Format: toxicity, cell-based
# experimental-conditions: b16-f10, 24 h, dose 40 µg/ml
assay-metric: Activity

>>> df
                               entry_smiles  assay_system     result
0     COc1cccc(C(=O)N/N=C/c2ccc3ccccc3n2)c1       B16-F10  Non-Toxic
1  O=C(N/N=C/c1ccc2ccccc2n1)c1ccc([N+](=O)[O-])cc1       B16-F10  Non-Toxic
2        O=C(N/N=C/c1ccc2ccccc2n1)c1ccccc1F       B16-F10  Non-Toxic
3     COc1ccc(C(=O)N/N=C/c2ccc3ccccc3n2)cc1       B16-F10      Toxic
4          O=C(N/N=C/c1ccc2ccccc2n1)c1ccco1       B16-F10  Non-Toxic
